- measured_target: recombinant His-tag Wip1 full length protein (amino acids #1-605) (Homo sapiens (Human), UniProt O15297)
- Sequence (O15297 whole entry): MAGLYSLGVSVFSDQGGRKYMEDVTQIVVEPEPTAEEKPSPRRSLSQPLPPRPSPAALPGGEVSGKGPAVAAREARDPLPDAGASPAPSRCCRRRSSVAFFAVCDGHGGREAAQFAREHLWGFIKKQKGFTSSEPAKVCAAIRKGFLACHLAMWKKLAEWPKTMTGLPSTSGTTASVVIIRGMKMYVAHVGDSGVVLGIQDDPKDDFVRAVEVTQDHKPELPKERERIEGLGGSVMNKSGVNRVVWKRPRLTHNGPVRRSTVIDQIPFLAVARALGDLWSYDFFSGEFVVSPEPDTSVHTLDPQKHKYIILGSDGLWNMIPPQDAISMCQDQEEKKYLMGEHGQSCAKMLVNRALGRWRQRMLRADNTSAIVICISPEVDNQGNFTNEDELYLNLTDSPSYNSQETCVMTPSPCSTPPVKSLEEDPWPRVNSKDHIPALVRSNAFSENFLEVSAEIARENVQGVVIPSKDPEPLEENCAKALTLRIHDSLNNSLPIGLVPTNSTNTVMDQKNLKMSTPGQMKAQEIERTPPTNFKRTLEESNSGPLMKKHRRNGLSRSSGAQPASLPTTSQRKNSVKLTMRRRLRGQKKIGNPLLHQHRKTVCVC
- procedure_details: Wip1 full length phosphatase enzyme FDP assay
- measurement_setup: fluorescein diphosphate (FDP) substrate, RT 2 hours, fluorescence Ex485/Em535
measurement_label: IC50 (nM)

Recorded IC50, per entry:
| compound | units_of_measure | IC50 |
| --- | --- | --- |
| CC[C@H](Nc1cc(Cl)cnc1C)c1ccc(C(=O)N[C@@H](CC2CCCC2)C(=O)N[C@H]2CC2(F)F)s1 | nM | 8 |
| CC[C@H](Nc1cc(Cl)cnc1C)c1ccc(C(=O)N[C@@H](CC2CCCC2)C(=O)NC2CC2)s1 | nM | 9 |
| O=C(N[C@@H](CC1CCCCC1)C(=O)NC1CCOCC1)c1cnc(CNc2ccnc(C(F)(F)F)c2)s1 | nM | 31 |
| Cc1ncc(Cl)cc1N[C@@H](C)c1ccc(C(=O)N[C@@H](CC23CC(C2)C3)C(=O)NC2CC2)s1 | nM | 136 |
| C[C@@H](Nc1cccc(Cl)c1)c1ncc(C(=O)N[C@@H](CC2CCCC2)C(=O)NC2CC2)s1 | nM | 16 |

I: Cc1ncc(Cl)cc1N[C@@H](C)c1ccc(C(=O)N[C@@H](CC2CCCC2)C(=O)NC2CC(C#N)C2)s1 (stereo partly drawn)
II: CCc1ncc(Cl)cc1N[C@H](C)c1ccc(C(=O)N[C@@H](CC2CCCC2)C(=O)NC2CC2)s1
# compare IC50 for I vs II ; return the one with the smaller value Output the label that corresponds to your choice. I

P: CN(Cc1ccc(C(=O)N[C@@H](CC2CCCCC2)C(=O)NC2CCC(N(C)C)CC2)s1)c1cncc(Cl)c1 (stereo partly drawn)
Q: Cc1ncc(Cl)cc1NC(C)(C)c1ccc(C(=O)N[C@@H](CC2CCCC2)C(=O)NC2CC2)s1
# compare IC50 for P vs Q ; return the one with the smaller value Output the label that corresponds to your choice. P
(P: 11 nM, Q: 36 nM)

1: Cc1ncc(Cl)cc1N[C@@H](C)c1ccc(C(=O)N[C@@H](CC2CCCC2)C(=O)NC2CCC(F)(F)C2)s1 (stereo partly drawn)
2: Cc1ncc(Cl)cc1N[C@@H](C)c1ccc(C(=O)N[C@@H](CCC(C)(C)C)C(=O)Nc2cnn(C)c2)s1
3: CC(Nc1cccc(Cl)c1)c1ncc(C(=O)N[C@@H](CC2CCCC2)C(=O)NC2CC2)s1 (stereo partly drawn)
4: COc1ncc(Cl)cc1N[C@@H](C)c1ccc(C(=O)N[C@@H](CC2CCCC2)C(=O)N[C@@H]2CC2(F)F)s1
Task field, ranking: reported IC50, descending order. Response format: the labels, sorted as the prompt asks. 4, 3, 2, 1
(4: 181 nM, 3: 39 nM, 2: 13 nM, 1: 9 nM)

1: C[C@@H](Nc1cccc(Cl)c1)c1ccc(C(=O)N[C@@H](CC2CCCC2)C(=O)NC2CC2)s1
2: COC(=O)C12CC(NC(=O)[C@H](CC3CCCC3)NC(=O)c3ccc([C@H](C)Nc4cc(Cl)cnc4C)s3)(C1)C2
# compare IC50 for 1 vs 2 ; return the one with the smaller value Output the label that corresponds to your choice. 1

P: Cc1ncc(Cl)cc1N[C@@H](C)c1ccc(C(=O)N[C@@H](CC2CCCC2)C(=O)NC23CC(C(N)=O)(C2)C3)s1
Q: Cc1ncc(Cl)cc1N[C@@H](C)c1ccc(C(=O)N[C@@H](CC2CCCC2)C(=O)NC23CC(C(=O)O)(C2)C3)s1
When P and Q are compared, which has the higher number for IC50? Output the label that corresponds to your choice. Q

1: Cc1ncc(Cl)cc1N[C@@H](C)c1ccc(C(=O)N[C@@H](CC2CCCC2)C(=O)Nc2cccc(S(C)(=O)=O)c2)s1
2: Cc1ncc(Cl)cc1N[C@@H](C)c1ccc(C(=O)N[C@@H](CC2CCCC2)C(=O)NC2COC2)s1
# compare IC50 for 1 vs 2 ; return the one with the smaller value Output the label that corresponds to your choice. 1
(1: 7 nM, 2: 10 nM)
